- system: UniProt P09619
- test-protocol: PDGFRβ kinase assay (PDGFRβ-HTRF)
- Format: biochemical
- protocol-conditions: 10 μM ATP; some mean values from multiple determinations
Below, each entry is listed with its recorded pIC50.
Just so you know, pIC50 here is -log10 of the concentration in molar units; reply with that number alone.

Known results for compounds:
Cc1cc(F)c(Nc2ccnc3c2C(=O)Nc2cc(C(=O)N4C[C@H](O)C[C@H]4CO)ccc2N3)cc1O	8.14
Cc1ccc(O)cc1Nc1ccnc2c1C(=O)Nc1cc(CNCCc3ccncc3)ccc1N2	8.15
Cc1ccc(O)cc1Nc1ccnc2c1C(=O)Nc1cc(CNC(C)CN(C)C)ccc1N2 (centres unmarked)	8.49
CCN(CCCO)Cc1ccc2c(c1)NC(=O)c1c(Nc3cc(O)c(C)cc3F)ccnc1N2	9.00
Cc1ccc(O)cc1Nc1ccnc2c1C(=O)Nc1cc(CNCc3ccc(F)cc3)ccc1N2	8.72
CCOC(=O)[C@H]1C[C@H](NCc2ccc3c(c2)NC(=O)c2c(Nc4cc(O)c(C)cc4F)ccnc2N3)C1	8.79

Look up and report measured pIC50 for this entry: Cc1ccc(O)cc1Nc1ccnc2c1C(=O)Nc1cc(CNc3ccccc3F)ccc1N2 7.28

Look up and report measured pIC50 for this entry: Cc1cc(F)c(Nc2ccnc3c2C(=O)Nc2cc(CNC4CC(OC(C)C)C4)ccc2N3)cc1O (centres unmarked) 8.91

Look up and report measured pIC50 for this entry: Cc1cc(F)c(Nc2ccnc3c2C(=O)Nc2cc(CNC(C)C4CCCCC4)ccc2N3)cc1O (racemic) 8.31

Look up and report measured pIC50 for this entry: Cc1cc(F)c(Nc2ccnc3c2C(=O)Nc2cc(C(=O)N4CCCC(O)C4)ccc2N3)cc1O (racemic) 8.00

Look up and report measured pIC50 for this entry: Cc1ccc(O)cc1Nc1ccnc2c1C(=O)Nc1cc(CN[C@H](C)C3CCCCC3)ccc1N2 8.80

Look up and report measured pIC50 for this entry: Cc1cc(F)c(Nc2ccnc3c2C(=O)Nc2cc(CNC(C)C)ccc2N3)cc1O 9.00

Look up and report measured pIC50 for this entry: Cc1ccc(O)cc1Nc1ccnc2c1C(=O)Nc1cc(CNCCN(C)C)ccc1N2 8.48

Look up and report measured pIC50 for this entry: Cc1ccc(O)cc1Nc1ccnc2c1C(=O)Nc1cc(CN3CCN(CCO)CC3)ccc1N2 7.70

Look up and report measured pIC50 for this entry: Cc1cc(F)c(Nc2ccnc3c2C(=O)Nc2cc(CN4CC5CC5C4CO)ccc2N3)cc1O (centres unmarked) 8.43

###

- system: human PDGFRβ (Homo sapiens (Human), UniProt P09619)
- Sequence (P09619 561-1106): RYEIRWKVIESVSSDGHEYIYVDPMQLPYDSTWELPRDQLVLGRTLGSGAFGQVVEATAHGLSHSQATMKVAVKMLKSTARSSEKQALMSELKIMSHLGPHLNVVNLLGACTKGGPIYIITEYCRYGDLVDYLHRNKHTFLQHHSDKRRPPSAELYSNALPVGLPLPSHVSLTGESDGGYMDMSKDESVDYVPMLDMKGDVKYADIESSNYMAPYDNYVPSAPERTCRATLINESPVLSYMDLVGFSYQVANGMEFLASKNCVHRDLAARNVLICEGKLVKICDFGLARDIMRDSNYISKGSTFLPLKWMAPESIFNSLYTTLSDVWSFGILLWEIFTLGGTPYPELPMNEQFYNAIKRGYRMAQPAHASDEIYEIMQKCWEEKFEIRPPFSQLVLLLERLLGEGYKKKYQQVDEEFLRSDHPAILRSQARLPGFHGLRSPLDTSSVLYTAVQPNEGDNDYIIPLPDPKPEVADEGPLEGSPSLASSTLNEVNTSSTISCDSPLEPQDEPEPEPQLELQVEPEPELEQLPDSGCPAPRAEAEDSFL
- test-protocol: PDGFRβ kinase assay (PDGFRβ-HTRF)
- Format: biochemical
- protocol-conditions: 10 μM ATP; some mean values from multiple determinations
- Method: The PDGFRβ-inhibitory activity of the inventive compounds was determined in the PDGFRβ-HTRF assay described hereinafter. […] Subsequently, the amount of the phosphorylated substrate was evaluated by measuring the resonance energy transfer from the PT66-Eu chelate to the streptavidin-XL665. […] The IC50 values were calculated by a 4-parameter fit.
Sorting guide: entries reporting IC50 beneath 2 nM go in the class 1 pile, the rest go in the class 0 pile.

Cc1ccc(O)cc1Nc1ccnc2c1C(=O)Nc1cc(CNCc3cccnc3)ccc1N2	class 0

Lab note: confirm whether the reported IC50 for this molecule is below 2 nM, equality not counting. molecule: Cc1cc(F)c(Nc2ccnc3c2C(=O)Nc2cc(CNC[C@@H]4CCN(C(=O)OC(C)(C)C)C[C@H]4O)ccc2N3)cc1O class 0

Lab note: confirm whether the reported IC50 for this molecule is below 2 nM, equality not counting. molecule: Cc1ccc(O)cc1Nc1ccnc2c1C(=O)Nc1cc(CNCCn3ccnn3)ccc1N2 class 0

Lab note: confirm whether the reported IC50 for this molecule is below 2 nM, equality not counting. molecule: Cc1ccc(O)cc1Nc1ccnc2c1C(=O)Nc1cc(CNCc3cccc(F)c3)ccc1N2 class 1
